Hey, just so you know, these numbers are from PubChem BioAssay AID449750.

assay: non-covalent RecA intein splicing inhibitors, dose response, biochemical, cell-free, fluorescence, secondary screen (AID 449750)
The source made the active and inactive calls. How the calls were made is not given here.
Outcome codes: active, inactive

| molecule | class-name |
| --- | --- |
| COc1ccc(/C=C2/C(=O)N(c3ccccc3)N=C2C)cc1 | active |
| O=C(NC1=C(Nc2ccc(Cl)cc2)C(=O)c2ccccc2C1=O)c1ccccc1 | active |
| CC1=NN(Cc2ccccc2)C(=O)C1C(c1ccncc1)C(C#N)C#N (configuration not stated) | inactive |
| COc1ccc(OCc2cc(C(=O)N3CCCC(OC)C3)no2)c2ccccc12 (configuration not stated) | inactive |
| Cc1ccc(C(=O)n2cnc3ccccc32)cc1C | inactive |
| CCOC(=O)C(CC)Sc1ncnc2c1nnn2-c1ccc(F)cc1 (configuration not stated) | inactive |
| S=C1Cc2ccccc2N1 | active |
| O=c1[nH]c(Nc2ccc(F)cc2)cc2ccccc12 | active |
| Nc1c(O)cccc1C(=O)O | active |
| CCCCCCCCCCCCCCCC[N+](C)(C)C | active |
| O=C(N/N=C\c1ccc(-c2ccccc2[N+](=O)[O-])o1)C1COc2ccccc2O1 (configuration not stated) | active |
| Cc1[nH][nH]c(=O)c1C(c1ccc(-c2ccc(F)cc2)o1)c1c(C)[nH][nH]c1=O | active |

###

experiment: non-covalent RecA intein splicing inhibitors, dose response, biochemical, cell-free, fluorescence, secondary screen (AID 449750)
Active and inactive are the calls of the source. How the calls were made is not given here.
Classes used: active, inactive

| compound | class-name |
| --- | --- |
| COC(=O)c1sc(N)c(C(=O)OC)c1Cn1ncc(Cl)c(Cl)c1=O | inactive |
| O=C(/C=C/c1cccs1)Nc1scc(-c2ccccc2)c1C(=O)O | active |
| Cc1cc2[nH]ncc2cc1NC(=S)NC(=O)c1ccccc1 | inactive |
| Cc1ccc(O)c(N=CC2=C(O)c3ccccc3C2=O)c1 | active |
| O=C(NCc1cccnc1)/C(=C\c1ccc(-c2ccc(Br)cc2)o1)S(=O)(=O)c1ccccc1 | active |
| COc1ccc2nc3cccc(OC)c3nc2c1 | active |
| O=C(N/N=C/c1c(O)n(C2CCCCC2)c(=S)[nH]c1=O)c1ccccc1O | active |
| O=C1C=C(NCc2ccccc2)c2ccccc2C1=O | active |
| Cc1nc2ccccc2c2c1C(=O)N(c1cccc(C(=O)O)c1)C2=O | inactive |
| O=C(CN(c1cccc(Br)c1)S(=O)(=O)c1ccccc1)N/N=C/c1cc([N+](=O)[O-])ccc1O | inactive |
| CCCCn1[nH]c(-c2ccccc2)cc1=O | active |
| N#CC1=C(N)Oc2n[nH]c(-c3ccccc3)c2C1c1cccc(OC(=O)N2CCOCC2)c1 (stereo not given) | active |
| CCCc1[nH][nH]c(=O)c1C(c1ccc(Br)cc1)C(C#N)C#N (stereo not given) | active |
| Cc1[nH][nH]c(=O)c1C(c1ccc(-c2cccc(Cl)c2)o1)c1c(C)[nH][nH]c1=O | inactive |
| Cc1ccc(-n2nc(C)c3c2OC(N)=C(C#N)C3c2cccs2)cc1 (stereo not given) | active |
| CCNC1=C(Cl)C(=O)c2ccccc2C1=O | active |
| Cc1cc(=O)n(-c2ccccc2Cl)[nH]1 | active |
| CS(=O)(=O)c1nc([N+](=O)[O-])nn1CCCc1ccccc1 | active |
| CCCCn1c(N)c(C(=O)NCc2cccs2)c2nc3ccccc3nc21 | inactive |
| O=C(CCl)N1CCN(S(=O)(=O)c2ccc3ccccc3c2)CC1 | active |
| OCCN(CCO)c1ccc(C(c2ccccc2Cl)c2ccc(N(CCO)CCO)cc2Cl)c(Cl)c1 | active |
| Cc1ccc(-c2cc(NC(=O)CCl)n(-c3ccccc3)n2)cc1 | active |
| O=C(N/N=C/c1ccc([N+](=O)[O-])o1)c1ccccc1NS(=O)(=O)c1cccs1 | inactive |
| CCOCC(=O)NCc1ccc2c(c1)cc(C)n2C | inactive |
| CCOc1cc(C(c2c(C)[nH][nH]c2=O)c2c(C)[nH][nH]c2=O)cc([N+](=O)[O-])c1O | active |
| O=c1cc(-c2cccc3ccccc23)[nH][nH]1 | active |
| Cc1nc2ccccc2c2c1C(=O)N(C)C2=O | inactive |
| Cc1nn(CCc2nn[nH]n2)c2nc(-c3ccc(C4CCCCC4)cc3)cc(C(F)(F)F)c12 | active |
| Cc1cc(C(=O)CCl)c(C)n1CCc1ccccc1 | active |
| CC1=NN(c2ccc(Cl)c(C(=O)O)c2)C(=O)C1 | active |
| COc1cc(C(c2c(C)[nH][nH]c2=O)c2c(C)[nH][nH]c2=O)ccc1OS(=O)(=O)c1ccccc1 | active |
| Fc1ccc(Sc2nc(-c3ccccc3)nnc2C(F)(F)F)cc1 | inactive |
| Cc1cc(OC(=O)c2ccccc2)n(CCC#N)n1 | active |
| CC(=O)Nc1cc(OC(=O)c2ccco2)cc(OC(=O)c2ccco2)c1 | active |
| CCOc1ccc(C2C(C#N)=C(N)Oc3n[nH]c(C)c32)cc1OC(=O)C1CC1 (stereo not given) | inactive |
| Cc1ccc2nc(-c3cccs3)oc(=O)c2c1 | inactive |
| Cc1nc2ccccc2c2c1C(=O)N(C(C)C)C2=O | inactive |
| CC(=O)N(C1=C(N2CCOCC2)C(=O)c2ccccc2C1=O)c1ccc(C(=O)O)cc1 | active |
| Cc1ccc(C2=NN(C(=O)CCl)C(c3cccs3)C2)o1 (stereo not given) | inactive |
| Oc1cc(O)c2c(c1)O[C@H](c1ccc(O)c(O)c1)[C@H](O)C2 | inactive |
| Cc1cc(=O)n(C2CCS(=O)(=O)C2)[nH]1 (stereo not given) | active |
| O=C1COc2ccc(C(=O)CCl)cc2N1 | inactive |
| Cc1[nH][nH]c(=O)c1C(c1c(C)[nH][nH]c1=O)c1cn(Cc2ccccc2Cl)c2ccccc12 | active |
| O=C(NC1CCCC1)C(c1ccc(F)cc1)N(Cc1ccc(F)cc1)C(=O)CCl (stereo not given) | active |
| O=S(=O)(c1ccc(Cl)c(Cl)c1)c1snnc1-c1ccccc1 | active |
